In this section we review reported Kd values for a set of compounds.
SYSTEM_TESTED: Fibroblast growth factor receptor 2 (Homo sapiens, UniProt P21802)
Sequence (P21802 whole entry, the tested form may be a part): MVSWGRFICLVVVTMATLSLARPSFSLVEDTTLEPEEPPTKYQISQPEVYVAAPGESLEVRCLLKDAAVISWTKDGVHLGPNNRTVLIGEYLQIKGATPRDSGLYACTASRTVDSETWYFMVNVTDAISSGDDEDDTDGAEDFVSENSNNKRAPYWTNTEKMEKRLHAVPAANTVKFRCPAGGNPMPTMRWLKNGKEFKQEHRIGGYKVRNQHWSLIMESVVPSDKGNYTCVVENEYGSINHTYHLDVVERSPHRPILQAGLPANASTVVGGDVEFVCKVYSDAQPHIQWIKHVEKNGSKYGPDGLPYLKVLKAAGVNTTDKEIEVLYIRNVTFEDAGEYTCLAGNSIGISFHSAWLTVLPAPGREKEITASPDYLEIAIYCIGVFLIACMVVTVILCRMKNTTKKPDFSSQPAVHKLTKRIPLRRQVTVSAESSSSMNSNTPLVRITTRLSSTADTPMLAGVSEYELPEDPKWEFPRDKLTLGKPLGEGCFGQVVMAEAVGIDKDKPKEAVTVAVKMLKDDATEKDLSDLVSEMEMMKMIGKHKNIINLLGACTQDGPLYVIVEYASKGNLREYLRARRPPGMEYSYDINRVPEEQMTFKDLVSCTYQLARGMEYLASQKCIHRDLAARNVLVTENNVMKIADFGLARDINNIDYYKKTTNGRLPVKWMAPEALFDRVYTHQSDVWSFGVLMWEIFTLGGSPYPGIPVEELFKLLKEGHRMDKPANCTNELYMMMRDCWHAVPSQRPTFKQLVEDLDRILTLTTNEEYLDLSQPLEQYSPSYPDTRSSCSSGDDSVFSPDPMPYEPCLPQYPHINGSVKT
TEST: Binding affinity to recombinant N-terminal His-FLAG-GST-tagged FGFR2 (unknown origin) (399 to 821 residues) expressed in baculovirus infected Sf9 insect cells incubated for 1 hr by TR-FRET assay
// units = nM; emit number, no label

{"columns": ["SMILES_REPR", "Kd (nM)"],
 "data": [
  ["CO[C@@H]1[C@H](N(C)CCOCCOCCOCCNC(=O)CCC2=[N+]3C(=Cc4c(C)cc(C)n4[B-]3(F)F)C=C2)C[C@H]2O[C@]1(C)n1c3ccccc3c3c4c(c5c6ccccc6n2c5c31)C(=O)NC4", 361]
]}

Asked: Request - read-out Kd | tested on Fibroblast growth factor receptor 2 (Homo sapiens, UniProt P21802) | compound "CO[C@@H]1[C@H](NCCOCCOCCOCCNC(=O)CCC2=[N+]3C(=Cc4c(C)cc(C)n4[B-]3(F)F)C=C2)C[C@H]2O[C@]1(C)n1c3ccccc3c3c4c(c5c6ccccc6n2c5c31)C(=O)NC4"
Given back: 242
